TARGET OR SYSTEM: JAK2 (JH1 domain-catalytic, Y1007F, Y1008F) kinase (Homo sapiens (Human), UniProt O60674, Y1007F/Y1008F)
Sequence (O60674 849-1124 Y1007F/Y1008F): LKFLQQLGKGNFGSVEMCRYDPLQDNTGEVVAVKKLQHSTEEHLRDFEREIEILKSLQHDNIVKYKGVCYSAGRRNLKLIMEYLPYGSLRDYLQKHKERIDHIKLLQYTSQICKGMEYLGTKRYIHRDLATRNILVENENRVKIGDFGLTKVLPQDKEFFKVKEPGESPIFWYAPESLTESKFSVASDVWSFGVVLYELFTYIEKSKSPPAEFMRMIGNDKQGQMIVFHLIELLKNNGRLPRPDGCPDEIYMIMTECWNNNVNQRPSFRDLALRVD
ASSAY: JAK2 JH1 Domain Binding Assay
PARTICULARS: qPCR readout
MEASURE: Kd

[
  {
    "COMPOUND": "Cn1cc(C(F)(F)F)cc(NC(=O)N2CC=CC23CCN(c2cnc4[nH]ccc4n2)CC3)c1=O [Example I-78]",
    "VAL": "10 to 50 nM"
  },
  {
    "COMPOUND": "Cn1cc(C(F)(F)F)cc(NC(=O)N(C)[C@H]2CC[C@H](c3cnc4[nH]ccc4n3)CC2)c1=O [Example I-120-a]",
    "VAL": "50 to 1000 nM"
  },
  {
    "COMPOUND": "Cn1cc(C(F)(F)F)cc(NC(=O)N2CCC23CCN(c2cnc4[nH]ccc4n2)CC3)c1=O [Example I-67]",
    "VAL": "50 to 1000 nM"
  },
  {
    "COMPOUND": "C[C@H]1CN(c2cnc3[nH]ncc3c2)CC[C@@H]1N(C)C(=O)Nc1cc(C(F)(F)F)cn(C)c1=O [Example I-74-a]",
    "VAL": "< 10 nM"
  },
  {
    "COMPOUND": "CN(C(=O)Nc1cc(C(F)(F)F)cn(C)c1=O)[C@@H]1CC=C(c2cnc3[nH]cc(N4CCOCC4)c3n2)CC1.CN(C(=O)Nc1cc(C(F)(F)F)cn(C)c1=O)[C@H]1CC=C(c2cnc3[nH]cc(N4CCOCC4)c3n2)CC1 (mixture of isomers) [Example I-165-a]",
    "VAL": "< 10 nM"
  },
  {
    "COMPOUND": "CN(C(=O)Nc1cc(C(F)(F)F)cn(C)c1=O)[C@H]1CCN(c2cnc3[nH]cc(N4CCOCC4)c3n2)CC1(F)F (single isomer, unassigned) [Example I-155-b]",
    "VAL": "10 to 50 nM"
  },
  {
    "COMPOUND": "COCc1cc2nc(N3CC[C@H](N(C)C(=O)Nc4cc(C(F)(F)F)cn(C)c4=O)[C@H](C)C3)cnc2[nH]1 [Example I-159-a]",
    "VAL": "< 10 nM"
  }
]

Each recorded value in this set is attributed to patent US20240116892A1.
